Molecular target: Zap1 (UniProt P47043)
Sequence: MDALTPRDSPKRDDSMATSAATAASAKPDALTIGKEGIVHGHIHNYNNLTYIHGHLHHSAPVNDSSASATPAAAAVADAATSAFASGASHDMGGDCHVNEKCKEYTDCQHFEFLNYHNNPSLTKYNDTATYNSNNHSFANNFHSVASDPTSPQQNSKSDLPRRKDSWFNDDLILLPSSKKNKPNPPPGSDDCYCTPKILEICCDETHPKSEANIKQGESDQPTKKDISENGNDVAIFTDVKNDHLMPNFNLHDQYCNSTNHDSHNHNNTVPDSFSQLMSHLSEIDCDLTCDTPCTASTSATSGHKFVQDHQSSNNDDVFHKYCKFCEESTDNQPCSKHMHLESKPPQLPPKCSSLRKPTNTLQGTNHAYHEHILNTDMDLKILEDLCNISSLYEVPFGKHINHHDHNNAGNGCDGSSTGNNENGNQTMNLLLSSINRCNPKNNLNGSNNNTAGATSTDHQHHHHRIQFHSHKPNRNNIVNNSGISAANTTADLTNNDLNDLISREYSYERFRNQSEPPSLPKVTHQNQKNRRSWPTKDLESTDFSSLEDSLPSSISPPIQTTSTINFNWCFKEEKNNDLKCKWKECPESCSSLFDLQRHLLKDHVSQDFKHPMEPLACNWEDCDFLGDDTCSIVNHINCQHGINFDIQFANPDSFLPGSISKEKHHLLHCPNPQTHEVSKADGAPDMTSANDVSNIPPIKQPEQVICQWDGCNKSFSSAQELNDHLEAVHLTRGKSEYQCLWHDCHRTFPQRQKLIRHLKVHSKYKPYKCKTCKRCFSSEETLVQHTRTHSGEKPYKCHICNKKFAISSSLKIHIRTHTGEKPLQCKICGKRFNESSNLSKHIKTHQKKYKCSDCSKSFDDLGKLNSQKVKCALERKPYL
Assay: PBM E-score (8-mer binding enrichment) (E-score (-0.5 to 0.5)); higher = stronger / more preferred TF binding
Conditions: protein concentration: 200 nM; construct: GST-full length
In all, about 33,000 sequences were measured (“E-score (-0.5 to 0.5)”: median about -0.021, highest 2% from about 0.32 on). What follows is part of a selection rich in the highest values, with near analogues and random picks from the rest.
For each entry below, report its PBM E-score value.
Number only, no unit.

Fill in the recorded PBM E-score for this sequence, with Zap1 (UniProt P47043) as test system: ACTCCTTG
0.0145

Fill in the recorded PBM E-score for this sequence, with Zap1 (UniProt P47043) as test system: GTGTAACA
0.0444

Fill in the recorded PBM E-score for this sequence, with Zap1 (UniProt P47043) as test system: CCCCTTAG
0.107

Fill in the recorded PBM E-score for this sequence, with Zap1 (UniProt P47043) as test system: ACCCTTAG
0.432

Fill in the recorded PBM E-score for this sequence, with Zap1 (UniProt P47043) as test system: CGGTAATA
0.219

Fill in the recorded PBM E-score for this sequence, with Zap1 (UniProt P47043) as test system: ACCCTTCG
0.373

Fill in the recorded PBM E-score for this sequence, with Zap1 (UniProt P47043) as test system: GCCACCTA
-0.103

Fill in the recorded PBM E-score for this sequence, with Zap1 (UniProt P47043) as test system: AGGTAATA
0.263

Fill in the recorded PBM E-score for this sequence, with Zap1 (UniProt P47043) as test system: CATGAAAC
0.0838

Fill in the recorded PBM E-score for this sequence, with Zap1 (UniProt P47043) as test system: GCCCTTCA
0.0388

Fill in the recorded PBM E-score for this sequence, with Zap1 (UniProt P47043) as test system: AGTGGCTC
-0.175

Fill in the recorded PBM E-score for this sequence, with Zap1 (UniProt P47043) as test system: CGCCACTC
-0.113

Fill in the recorded PBM E-score for this sequence, with Zap1 (UniProt P47043) as test system: AGACAATA
0.0476

Fill in the recorded PBM E-score for this sequence, with Zap1 (UniProt P47043) as test system: ACCCTTAA
0.443

Fill in the recorded PBM E-score for this sequence, with Zap1 (UniProt P47043) as test system: AAGTAACA
-0.0158

Fill in the recorded PBM E-score for this sequence, with Zap1 (UniProt P47043) as test system: CCAGTTAG
0.00998

Fill in the recorded PBM E-score for this sequence, with Zap1 (UniProt P47043) as test system: ATCCTTAG
-0.192

Fill in the recorded PBM E-score for this sequence, with Zap1 (UniProt P47043) as test system: ACCCTTAC
0.29

Fill in the recorded PBM E-score for this sequence, with Zap1 (UniProt P47043) as test system: TCCCTTAA
0.0619

Fill in the recorded PBM E-score for this sequence, with Zap1 (UniProt P47043) as test system: GGGTAATA
0.348

Fill in the recorded PBM E-score for this sequence, with Zap1 (UniProt P47043) as test system: CTGGTGAC
-0.0173

Fill in the recorded PBM E-score for this sequence, with Zap1 (UniProt P47043) as test system: ACCCTTCT
0.272

###

Biological target: Zap1 (UniProt P47043)
Sequence: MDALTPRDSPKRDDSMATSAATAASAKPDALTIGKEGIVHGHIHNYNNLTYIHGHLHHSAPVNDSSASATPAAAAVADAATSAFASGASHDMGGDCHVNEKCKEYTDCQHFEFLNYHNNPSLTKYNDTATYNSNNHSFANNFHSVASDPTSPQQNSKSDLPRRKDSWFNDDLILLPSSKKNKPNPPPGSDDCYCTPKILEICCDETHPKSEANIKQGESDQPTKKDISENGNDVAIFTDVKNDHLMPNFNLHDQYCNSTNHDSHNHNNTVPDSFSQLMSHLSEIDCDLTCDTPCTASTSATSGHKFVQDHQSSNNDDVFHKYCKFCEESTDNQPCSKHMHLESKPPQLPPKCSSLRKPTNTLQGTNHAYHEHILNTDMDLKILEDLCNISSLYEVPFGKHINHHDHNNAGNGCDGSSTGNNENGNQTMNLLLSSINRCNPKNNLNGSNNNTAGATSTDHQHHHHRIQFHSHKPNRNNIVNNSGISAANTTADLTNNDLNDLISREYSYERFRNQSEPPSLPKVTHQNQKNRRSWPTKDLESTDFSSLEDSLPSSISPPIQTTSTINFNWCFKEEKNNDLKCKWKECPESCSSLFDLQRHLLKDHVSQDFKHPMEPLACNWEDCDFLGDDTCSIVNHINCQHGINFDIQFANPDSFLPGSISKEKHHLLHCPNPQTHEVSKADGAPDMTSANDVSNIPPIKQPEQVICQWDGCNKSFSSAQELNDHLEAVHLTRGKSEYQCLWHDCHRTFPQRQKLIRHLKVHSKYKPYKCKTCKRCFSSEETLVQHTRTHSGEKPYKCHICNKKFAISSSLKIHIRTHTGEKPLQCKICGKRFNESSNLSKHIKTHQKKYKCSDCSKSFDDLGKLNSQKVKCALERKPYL
Assay: PBM E-score (8-mer binding enrichment) (E-score (-0.5 to 0.5)); higher = stronger / more preferred TF binding
Conditions: protein concentration: 200 nM; construct: GST-full length
The full ranking holds about 33,000 sequences; the median of “E-score (-0.5 to 0.5)” is about -0.021, and the highest 2% start at about 0.32. The sample holds the highest values, similar sequences and a random draw of the others, so the mix is not that of the screen.
Using PBM E-score as the sorting value, the categories are 1 = under -0.007, 2 = from -0.007 up to 0.2, 3 = 0.2 and over

Which class is correct for the following sequence? CACCATAA
2

Which class is correct for the following sequence? ATAACCAA
3

Which class is correct for the following sequence? TACCCCGA
3

Which class is correct for the following sequence? GGATAAAC
2

Which class is correct for the following sequence? AAGTTGCT
1

Which class is correct for the following sequence? AGATAACG
2

Which class is correct for the following sequence? TCTTGGAA
2

Which class is correct for the following sequence? AGATAACC
3

Which class is correct for the following sequence? ACCCTAGC
3

Which class is correct for the following sequence? TCCCTAGA
1

Which class is correct for the following sequence? CCAGATGA
1

Which class is correct for the following sequence? CAATCCAG
1

Which class is correct for the following sequence? AATAAGAA
3

Which class is correct for the following sequence? GCAACCAA
3

Which class is correct for the following sequence? CAACCCGC
3

Which class is correct for the following sequence? AGCACTAC
1

Which class is correct for the following sequence? ACCCTAGA
3

Which class is correct for the following sequence? CTTCCCAA
1

Which class is correct for the following sequence? AGTAACGA
2

Which class is correct for the following sequence? GAGACAAA
1

Which class is correct for the following sequence? AGTTGGTC
2

Which class is correct for the following sequence? TTGCTAAA
1

Which class is correct for the following sequence? AGGTGGTC
2

Which class is correct for the following sequence? AAGGGTAC
3

Which class is correct for the following sequence? AGTCTTAT
1

Which class is correct for the following sequence? GCAAGGTA
3

Which class is correct for the following sequence? ATTTGTCC
1

Which class is correct for the following sequence? AATAAGGA
1

Which class is correct for the following sequence? AAGTTACG
2

Which class is correct for the following sequence? AACCTAGG
3

Which class is correct for the following sequence? AGTAGCAG
1

Which class is correct for the following sequence? ATTTCTGG
2

Which class is correct for the following sequence? GTCCTTTA
2

Which class is correct for the following sequence? CAGGGTGC
2

Which class is correct for the following sequence? GAATGACA
1

Which class is correct for the following sequence? CGATAACA
2

Which class is correct for the following sequence? GACCCCGA
3

Which class is correct for the following sequence? AACCATGA
3

Which class is correct for the following sequence? GGTAACCA
3

Which class is correct for the following sequence? ATCCAGTC
1

Which class is correct for the following sequence? AAAACCAA
3

Which class is correct for the following sequence? CCGAAGCA
1

Which class is correct for the following sequence? AGTAGCGG
1

Which class is correct for the following sequence? CAACCCGA
3

Which class is correct for the following sequence? ATAGGGTA
3

Which class is correct for the following sequence? ACCCTAGG
3

Which class is correct for the following sequence? GAAGACCC
3

Which class is correct for the following sequence? CGGTTGAA
3

Which class is correct for the following sequence? CACCATTA
2

Which class is correct for the following sequence? ACCCTAGT
3

Which class is correct for the following sequence? CAATGAGC
1

Which class is correct for the following sequence? CATGCTGG
1

Which class is correct for the following sequence? ACACTTGG
2

Which class is correct for the following sequence? GTAGGGTA
3

Which class is correct for the following sequence? ACGGGTAC
3

Which class is correct for the following sequence? ACAATAGG
1

Which class is correct for the following sequence? GGAACACC
2

Which class is correct for the following sequence? AGTAACTC
1

Which class is correct for the following sequence? GTAATCAA
2

Which class is correct for the following sequence? CCTCGACC
1

Which class is correct for the following sequence? GTAGGGCA
1

Which class is correct for the following sequence? ACCTAGGC
1

Which class is correct for the following sequence? CCCAAGAC
1

Which class is correct for the following sequence? AACCATGC
2

Which class is correct for the following sequence? AGCGCATG
1

Which class is correct for the following sequence? CGTAACCA
3

Which class is correct for the following sequence? AGTAACCC
3

Which class is correct for the following sequence? GGATAACC
3

Which class is correct for the following sequence? CGGGACAA
1

Which class is correct for the following sequence? GGTAGTAC
3

Which class is correct for the following sequence? CCCCTAGG
2

Which class is correct for the following sequence? CTAGGGAA
1

Which class is correct for the following sequence? GGAGACGA
1

Which class is correct for the following sequence? TCAACCAA
2

Which class is correct for the following sequence? TCGGGTAA
3

Which class is correct for the following sequence? AACCTAGT
2

Which class is correct for the following sequence? GGTAACTA
3

Which class is correct for the following sequence? GTAACCAA
3

Which class is correct for the following sequence? GCATGACC
3

Which class is correct for the following sequence? AACCATTA
3

Which class is correct for the following sequence? GGAACCAA
2

Which class is correct for the following sequence? AGTAATAT
2

Which class is correct for the following sequence? CGTGGCCA
2

Which class is correct for the following sequence? GGTAACGA
3

Which class is correct for the following sequence? CGATAACG
1

Which class is correct for the following sequence? AATCTCGC
1

Which class is correct for the following sequence? ACGTTACG
2

Which class is correct for the following sequence? TACAGCCA
1

Which class is correct for the following sequence? CGTAACTA
2

Which class is correct for the following sequence? AAACCCGA
3

Which class is correct for the following sequence? AGTAACCA
3

src = the supplement of paper PMC3334620
